Biological target: T1, human TREM2 (triggering receptor expressed on myeloid cells 2) (human) (UniProt Q9NZC2)
T1 sequence (looked up): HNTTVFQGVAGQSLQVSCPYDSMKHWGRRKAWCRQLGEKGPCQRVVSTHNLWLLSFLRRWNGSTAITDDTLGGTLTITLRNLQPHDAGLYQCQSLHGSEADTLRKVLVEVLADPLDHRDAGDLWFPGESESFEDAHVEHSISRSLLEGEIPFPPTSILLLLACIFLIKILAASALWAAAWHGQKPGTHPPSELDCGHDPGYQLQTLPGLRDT
Assay: 1st screen, 10 nM Ab
In this section we review reported Binding Signal (fold over 6E7 parental antibody) values for a set of binders.
Field format: number, assumed fold, no unit text.

Examples with answers:
[[record]]
binder = "6E7 antibody affinity modulation variant V28 (antibody, V domains shown) VH: EVQLVQSGAEVKKPGESLKISCKGSGYSFQSYWIAWVRQMPGKGLEWMGTIYPGDSDTRYSPSFQGQVTISADKSISTAYLQWSSLKASDTAMYFCARQRTFFYDSSDYFDYWGQGTLVTVSS VL: DIQMTQSPSSVSASVGDRVTITCRASQGISSWLAWYQQKPGKAPKLLIYAASSLQSGVPSRFSGSGSGTDFTLTISSLQPEDFATYFCQQADSLPRTFGQGTKLEIK"
quantitative_result = 3.08

[[record]]
binder = "6E7 antibody affinity modulation variant V61 (antibody, V domains shown) VH: EVQLVQSGAEVKKPGESLKISCKGSGYSFSSYWIAWVRQMPGKGLEWMGIIYPGDSDTRYNPSFQGQVTISADKSISTAYLQWSSLKASDTAMYFCARGRTFYYDSSDYFDYWGQGTLVTVSS VL: DIQMTQSPSSVSASVGDRVTITCRASQGISSWLAWYQQKPGKAPKLLIYAASSLVNGVPSRFSGSGSGTDFTLTISSLQPEDFATYFCQQADSLPRTFGQGTKLEIK"
quantitative_result = 5.08


Lab note: next binder to report on.
Find the recorded Binding Signal (fold over 6E7 parental antibody) belonging to 6E7 antibody affinity modulation variant V75 (antibody, V domains shown) VH: EVQLVQSGAEVKKPGESLKISCKGSGYSFTSYWIAWVRQMPGKGLEWMGIIYPGDSDTRYSPSFQGQVTISADKSISTAYLQWSSLKASDTAMYFCARGRTFYYDSSDYFDYWGQGTLVTVSS VL: DIQMTQSPSSVSASVGDRVTITCRASQGISSWLAWYQQKPGKAPKLLIYAASSLQAGVPSRFSGSGSGTDFTLTISSLQPEDFATYFCQQADSYPRTFGQGTKLEIK and report it.
4.64
